Ref: paper PMC10206591

- Test system: SARS-CoV-2 S-mediated membrane fusion
property.label: Activity index (Fusion % at CC50/CC50), NO TMPRSS2

Look over these answered cases.
compound: COCCCOc1ccnc(C[S+]([O-])c2nc3ccccc3[nH]2)c1C (stereo not drawn)
result.value: 4,70
--
compound: CC(C)OC(=O)CCC/C=C\C[C@@H]1[C@@H](CC[C@@H](O)CCc2ccccc2)[C@H](O)C[C@@H]1O
result.value: 1,11
--
compound: C#C[C@]1(O)CC[C@H]2[C@@H]3CCc4cc(O)ccc4[C@H]3CC[C@@]21C
result.value: 3,25
--
compound: O=C(Nc1ccccc1)OCC(CN1CCCCC1)OC(=O)Nc1ccccc1 (stereo not drawn)
result.value: 3,03
--
compound: CCC(C)(C)C(=O)O[C@H]1C[C@@H](C)C=C2C=C[C@H](C)[C@H](CC[C@@H]3C[C@@H](O)CC(=O)O3)[C@H]21
result.value: 5,03

Request: Report measured Activity index (Fusion % at CC50/CC50), NO TMPRSS2; entry is `CCOc1ccc(Cc2nccc3cc(OCC)c(OCC)cc23)cc1OCC`
Response: 2,86
